Here the recorded minimal effective concentration is given for each entry.
Tested on: Eimeria tenella
Test: The compound was evaluated for the variations in the vulnerability to Eimeria tenella
Type: functional
Details: read-out: MEC
// unit must come after the numeric part

# example entries with known answers
| structure smiles string | endpoint name | result |
| --- | --- | --- |
| Cc1cc(-n2ncc(=O)[nH]c2=O)cc(Cl)c1S(=O)(=O)N1CCOCC1 | minimal effective concentration | 10 µg/mL |
| Cc1cc(-n2ncc(=O)[nH]c2=O)ccc1S(=O)(=O)N1CCOCC1 | minimal effective concentration | 15 µg/mL |
| O=c1cnn(-c2cc(Cl)c(S(=O)(=O)N3CCOCC3)c(Cl)c2)c(=O)[nH]1 | minimal effective concentration | 15 µg/mL |
| Cc1cc(-n2ncc(=O)[nH]c2=O)cc(C)c1S(=O)(=O)N1CCOCC1 | minimal effective concentration | 15 µg/mL |

Okay, now this compound:
Request: Recorded minimal effective concentration for O=c1cnn(-c2ccc(S(=O)(=O)N3CCOCC3)c(Cl)c2)c(=O)[nH]1 with Eimeria tenella, please?
Response: 30 µg/mL

* * *

Test system: Eimeria acervulina
Assay: The compound was evaluated for the variations in the vulnerability to Eimeria acervulina
Type: functional
Conditions: read-out: MEC
endpoint name: minimal effective concentration (µg/mL)
Reply with just the number (in µg/mL).

| structure smiles string | target under test | unit abbreviation | minimal effective concentration |
| --- | --- | --- | --- |
| O=c1cnn(-c2cc(Cl)c(S(=O)(=O)N3CCOCC3)c(Cl)c2)c(=O)[nH]1 | Eimeria acervulina | µg/mL | 30 |
| O=c1cnn(-c2ccc(S(=O)(=O)N3CCOCC3)c(Cl)c2)c(=O)[nH]1 | Eimeria acervulina | µg/mL | 120 |
| Cc1cc(-n2ncc(=O)[nH]c2=O)cc(C)c1S(=O)(=O)N1CCOCC1 | Eimeria acervulina | µg/mL | 50 |
| Cc1cc(-n2ncc(=O)[nH]c2=O)ccc1S(=O)(=O)N1CCOCC1 | Eimeria acervulina | µg/mL | 30 |

Okay, now this compound:
Request: Recorded minimal effective concentration for Cc1cc(-n2ncc(=O)[nH]c2=O)cc(Cl)c1S(=O)(=O)N1CCOCC1 with Eimeria acervulina, please?
Response: 60

* * *

Here the recorded half-life is given for each entry.
Assay: Half life in plasma of young cockerels
Assay type: ADME, organism-based, Gallus gallus
Details: male, chicken
Reply with just the number (in min).

# example entries with known answers
| structure smiles string | half-life [min] |
| --- | --- |
| COc1c(Cl)cc(-n2ncc(=O)[nH]c2=O)cc1Cl | 120 |
| Cc1cc(C)cc(-n2ncc(=O)[nH]c2=O)c1 | 360 |
| Cc1cc(-n2ncc(=O)[nH]c2=O)cc(Cl)c1S(=O)(=O)N1CCOCC1 | 60 |
| Cc1cc(-n2ncc(=O)[nH]c2=O)ccc1S(=O)(=O)N1CCOCC1 | 66 |

Request: Quick check: half-life of O=c1cnn(-c2ccccc2)c(=O)[nH]1 ?
Response: 480

Request: Quick check: half-life of O=c1cnn(-c2cc(Cl)cc(Cl)c2)c(=O)[nH]1 ?
Response: 3360

Request: Quick check: half-life of O=c1cnn(-c2ccc(S(=O)(=O)N3CCOCC3)c(Cl)c2)c(=O)[nH]1 ?
Response: 126

Request: Quick check: half-life of Cc1cc(-n2ncc(=O)[nH]c2=O)cc(C)c1S(=O)(=O)N1CCOCC1 ?
Response: 90
